- SYSTEM TESTED: MAP kinase-interacting serine/threonine-protein kinase 2 (Homo sapiens)
- RUN CONDITIONS: at 0.1 µM
- Description: GSK_PKIS: MNK2 mean inhibition at 0.1 uM [Nanosyn]
READOUT LABEL: inhibition (%)
Dear colleague, please return just the value in %, with no unit written.

Some compounds with recorded inhibition:
COMPOUND: NS(=O)(=O)c1ccc(NC=C2C(=O)Nc3ccc4ncsc4c32)cc1
READOUT LABEL: inhibition
QUANTITY UNIT: %
RESULT NUMBER: 3.84
//
COMPOUND: ON=C1CCc2cc(-c3nc(C4CCNCC4)[nH]c3-c3ccncc3)ccc21
READOUT LABEL: inhibition
QUANTITY UNIT: %
RESULT NUMBER: 0.66
//
COMPOUND: COc1cccc(-n2nc(C)c3c(N/N=C(\C)c4ccncc4)ncnc32)c1
READOUT LABEL: inhibition
QUANTITY UNIT: %
RESULT NUMBER: -0.51
//
COMPOUND: NC(=O)c1sc(-n2cnc3ccccc32)cc1OCc1ccccc1Br
READOUT LABEL: inhibition
QUANTITY UNIT: %
RESULT NUMBER: 0.25
//
COMPOUND: Oc1cccc(-c2nc(-c3ccccc3)[nH]c2-c2ccncc2)c1
READOUT LABEL: inhibition
QUANTITY UNIT: %
RESULT NUMBER: 1.57

# input Entry COC(=O)c1cncc(/C=C/c2c(C)cc(O)cc2C)c1 : reported inhibition = ?
# output 3.34

# input Entry CC(C)c1ccc(Nc2nccc(-c3cnn4ncccc34)n2)cc1 : reported inhibition = ?
# output 2.64

# input Entry Nc1nccc(C#Cc2cncnc2Nc2ccc(OCc3cccc(F)c3)c(Cl)c2)n1 : reported inhibition = ?
# output 2.98

# input Entry Nc1nccc(-c2c(-c3ccc(F)cc3)ncn2CCCN2CCOCC2)n1 : reported inhibition = ?
# output 1.53

# input Entry NS(=O)(=O)c1ccc(-c2cc3ccncc3cc2OCc2ccccc2)cc1 : reported inhibition = ?
# output 4.29

# input Entry COc1ccc(-c2nn3ncccc3c2-c2ccnc(Nc3cccc(C(F)(F)F)c3)n2)cc1 : reported inhibition = ?
# output 0.77

----------
Item-by-item account of inhibition
- SYSTEM TESTED: Tyrosine-protein kinase Blk (Homo sapiens);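 further: mean percent inhibition of BLK kinase activity, from GSK PKIS kinase inhibitor set profiling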
- RUN CONDITIONS: at 1 µM
# do not omit the unit; it follows the number

Some compounds with recorded inhibition:
COMPOUND: NS(=O)(=O)c1cccc(Nc2cc(-c3ccc(F)cc3)n[nH]2)c1
READOUT LABEL: inhibition
RESULT: 6.41%

COMPOUND: Cc1cc(Cl)cc2c1NC(=O)C2=NNc1ccc(S(N)(=O)=O)cc1
READOUT LABEL: inhibition
RESULT: 1.63%

COMPOUND: NC(=O)c1cccc(Nc2nccc(Nc3cccc(F)c3)n2)c1
READOUT LABEL: inhibition
RESULT: 13.8%

COMPOUND: C[C@@H](Oc1cc(-n2cnc3ccc(OC[C@@H](O)CO)cc32)sc1C(N)=O)c1ccccc1Cl
READOUT LABEL: inhibition
RESULT: 3.09%

COMPOUND: Cc1ccc(O)cc1Nc1ccnc2ccc(S(C)(=O)=O)cc12
READOUT LABEL: inhibition
RESULT: 91.4%

# input for lookup
# input Entry COc1cccc(-n2ncc3c(N/N=C/c4ccc(C)cc4)ncnc32)c1 : reported inhibition = ?
# output 7.15%
